Values compiled from patent EP4471049A1.

# testedTarget: T1, Nluc-IL23R fusion protein (human, UniProt Q5VWK5 22-629)
# T1 construct: range 22-629; expressed with a secretion signal in HEK293 cells; used as crude membrane preparation; also called hIL-23R; human IL-23R; not shown: Nanoluc protein from the expression plasmid N1371 (Promega), N-terminal of IL-23R
# T1 sequence (looked up): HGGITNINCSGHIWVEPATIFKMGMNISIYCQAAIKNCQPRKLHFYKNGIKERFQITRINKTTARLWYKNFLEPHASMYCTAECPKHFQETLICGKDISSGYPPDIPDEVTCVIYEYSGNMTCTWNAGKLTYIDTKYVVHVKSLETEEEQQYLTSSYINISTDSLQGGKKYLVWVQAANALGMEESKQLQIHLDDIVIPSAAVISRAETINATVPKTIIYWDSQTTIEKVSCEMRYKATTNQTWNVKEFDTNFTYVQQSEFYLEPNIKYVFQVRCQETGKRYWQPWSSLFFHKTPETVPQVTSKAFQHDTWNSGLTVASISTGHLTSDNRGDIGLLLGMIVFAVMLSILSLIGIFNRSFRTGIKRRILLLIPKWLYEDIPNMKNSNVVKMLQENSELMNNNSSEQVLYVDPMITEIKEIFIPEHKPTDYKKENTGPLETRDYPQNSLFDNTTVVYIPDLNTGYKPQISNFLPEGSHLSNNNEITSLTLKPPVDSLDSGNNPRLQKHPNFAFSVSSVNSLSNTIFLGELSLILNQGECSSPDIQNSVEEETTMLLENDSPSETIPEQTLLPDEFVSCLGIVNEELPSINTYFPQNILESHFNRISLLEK
# testDetails: BRET competition vs TAMRA-labelled peptide, Nluc-IL23R membranes
pIC50: −log10 of the molar value. *1 amine or outer side, *2 acyl side, *3 side chain or, on linkers, in order; H or OH if unused. Bridges are numbered along the chain shown (N, C = ends). Primed or numbered codes have the meaning given here. Where no end group is shown, it is not given here. [ ]: non-standard residue; d: D form. 4‑Aminomethyl‑phenylacetyl = 4-aminomethyl-phenylacetyl unit, its amine closes the lactam, O=C(Cc1ccc(CN[*:1])cc1)[*:2]; Q(pyrrolidin)(3) = Gln whose side-chain amide N is in a pyrrolidine ring, O=C(CC[C@H](N[*:1])C(=O)[*:2])N1CCCC1; 2Nal = N[C@@H](Cc1ccc2ccccc2c1)C(=O)O; AEF = NCCOc1ccc(C[C@H](N)C(=O)O)cc1; 3Pal = N[C@@H](Cc1cccnc1)C(=O)O; αMeL = CC(C)C[C@](C)(N)C(=O)O; β3hL = CC(C)C[C@H](N)CC(=O)O; Orn = NCCC[C@H](N)C(=O)O; Q(Me) = not defined here; Dab = NCC[C@H](N)C(=O)O
metricName: pIC50

[4‑Aminomethyl‑phenylacetyl]SEW[Q(pyrrolidin)(3)][Dab][AEF][2Nal][αMeL]E[Dab][3Pal]-NHMe (lactam N-10, 3-6) [Compound 27]	10.77
[4‑Aminomethyl‑phenylacetyl]SEWF[Dab][AEF][2Nal][αMeL]E[Dab][3Pal]-NHMe (lactam N-10, 3-6; SMILES CNC(=O)[C@H](Cc1cccnc1)NC(=O)[C@H](CCN)NC(=O)[C@@H]1CCC(=O)NCc2ccc(cc2)CC(=O)N[C@@H](CO)C(=O)N[C@H]2CCC(=O)NCC[C@H](NC(=O)[C@H](Cc3ccccc3)NC(=O)[C@H](Cc3c[nH]c4ccccc34)NC2=O)C(=O)N[C@@H](Cc2ccc(OCCN)cc2)C(=O)N[C@@H](Cc2ccc3ccccc3c2)C(=O)N[C@@](C)(CC(C)C)C(=O)N1) [Compound 23]	9.92
[4‑Aminomethyl‑phenylacetyl]SEWQ[Dab][AEF][2Nal][αMeL]E[Dab][3Pal][β3hL]-NH2 (lactam N-10, 3-6; SMILES CC(C)C[C@@H](CC(N)=O)NC(=O)[C@H](Cc1cccnc1)NC(=O)[C@H](CCN)NC(=O)[C@@H]1CCC(=O)NCc2ccc(cc2)CC(=O)N[C@@H](CO)C(=O)N[C@H]2CCC(=O)NCC[C@H](NC(=O)[C@H](CCC(N)=O)NC(=O)[C@H](Cc3c[nH]c4ccccc34)NC2=O)C(=O)N[C@@H](Cc2ccc(OCCN)cc2)C(=O)N[C@@H](Cc2ccc3ccccc3c2)C(=O)N[C@@](C)(CC(C)C)C(=O)N1) [Compound 11]	10.62
[4‑Aminomethyl‑phenylacetyl]SEW[Orn][Dab][AEF][2Nal][αMeL]E[Dab][3Pal]-NHMe (lactam N-10, 3-6; SMILES CNC(=O)[C@H](Cc1cccnc1)NC(=O)[C@H](CCN)NC(=O)[C@@H]1CCC(=O)NCc2ccc(cc2)CC(=O)N[C@@H](CO)C(=O)N[C@H]2CCC(=O)NCC[C@H](NC(=O)[C@H](CCCN)NC(=O)[C@H](Cc3c[nH]c4ccccc34)NC2=O)C(=O)N[C@@H](Cc2ccc(OCCN)cc2)C(=O)N[C@@H](Cc2ccc3ccccc3c2)C(=O)N[C@@](C)(CC(C)C)C(=O)N1) [Compound 28]	10.96
[4‑Aminomethyl‑phenylacetyl]SEWA[Dab][AEF][2Nal][αMeL]E[Dab][3Pal]-NHMe (lactam N-10, 3-6; SMILES CNC(=O)[C@H](Cc1cccnc1)NC(=O)[C@H](CCN)NC(=O)[C@@H]1CCC(=O)NCc2ccc(cc2)CC(=O)N[C@@H](CO)C(=O)N[C@H]2CCC(=O)NCC[C@H](NC(=O)[C@H](C)NC(=O)[C@H](Cc3c[nH]c4ccccc34)NC2=O)C(=O)N[C@@H](Cc2ccc(OCCN)cc2)C(=O)N[C@@H](Cc2ccc3ccccc3c2)C(=O)N[C@@](C)(CC(C)C)C(=O)N1) [Compound 22]	10.46
[4‑Aminomethyl‑phenylacetyl]SEW[Dab](Ac)[Dab][AEF][2Nal][αMeL]E[Dab][3Pal]-NHMe (lactam (positions not given here); lactam 3-6; not fully specified (bridges)) [Compound 25]	10.96
[4‑Aminomethyl‑phenylacetyl]SEW[Q(Me)][Dab][AEF][2Nal][αMeL]E[Dab][3Pal]-NHMe (lactam N-10, 3-6; reading uncertain) [Compound 29]	10.96
